Each recorded value in this set is attributed to ChEMBL document CHEMBL5131387.

- tested-target: P2Y purinoceptor 14 (Homo sapiens)
- Sequence (Q15391 whole entry): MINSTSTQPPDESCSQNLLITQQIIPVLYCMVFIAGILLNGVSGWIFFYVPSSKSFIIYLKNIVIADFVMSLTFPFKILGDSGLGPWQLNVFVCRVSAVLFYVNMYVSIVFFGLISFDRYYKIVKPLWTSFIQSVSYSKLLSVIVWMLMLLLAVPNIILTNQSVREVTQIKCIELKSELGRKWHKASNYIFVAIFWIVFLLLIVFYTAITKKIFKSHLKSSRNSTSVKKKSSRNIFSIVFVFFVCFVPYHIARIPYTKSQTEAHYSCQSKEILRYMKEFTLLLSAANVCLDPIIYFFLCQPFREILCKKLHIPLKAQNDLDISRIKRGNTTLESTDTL
- procedure-summary: Antagonist activity at human P2Y14R expressed in human HEK293 cells assessed as inhibition of cAMP level incubated for 30 mins by cAMP-glo assay
pIC50: −log10 of the molar value.
outcome-measure: pIC50

# example entries with known answers
{"structure-smiles": "COc1cccc(CC(=O)Nc2cccc(-c3nc4ccccc4o3)c2)c1", "tested-target": "P2Y purinoceptor 14 (Homo sapiens)", "pIC50": 7.61}
{"structure-smiles": "COc1ccccc1CC(=O)Nc1cccc(-c2nc3ccccc3o2)c1", "tested-target": "P2Y purinoceptor 14 (Homo sapiens)", "pIC50": 7.91}

[P] Cc1ccc(CC(=O)Nc2cccc(-c3nc4cc(Cl)ccc4o3)c2)cc1
[Q] Cc1ccc(CC(=O)Nc2ccc(-c3cc4ccccc4o3)cc2)cc1
Lower pIC50: P or Q ? Response format: the label of the selected entry.
Q
(Q: 7.37, P: 8.17)
